Test system: Plasmodium falciparum
assay-comment: NOVARTIS: Inhibition of Plasmodium falciparum W2 (drug-resistant) proliferation in erythrocyte-based infection assay
Type: functional, organism-based
assay-conditions: Plasmodium falciparum, W2; read-out: EC50
endpoint-label: EC50

Reference set (3 entries):
>  <compound>
Cc1c(Cl)cccc1NC(=O)CCC(=O)NNC(=O)c1ccccc1

>  <target-or-test-system>
Plasmodium falciparum

>  <EC50>
> 1250 nM

$$$$
>  <compound>
COc1cccc(CN2CCN(C(=O)c3c(C)noc3C)[C@@H](C)C2)c1

>  <target-or-test-system>
Plasmodium falciparum

>  <EC50>
> 1250 nM

$$$$
>  <compound>
CCCc1ccc(OCc2nc(-c3ccc(NC(=O)c4cccs4)cc3)no2)cc1

>  <target-or-test-system>
Plasmodium falciparum

>  <EC50>
> 12500 nM

$$$$

For each of the compounds below, note its EC50.
1. O=S(=O)(NC1CCCC1)c1cccc2nonc12
2. CSc1nc(N)nc(SC2C=CCCC2)c1C#N (stereo unspecified)
3. O=C1CCC(c2ccc(Cl)c(Cl)c2)c2ccc(O)cc21 (stereo unspecified)

> 982 nM
> 12500 nM
> 914 nM

====

assay-comment: NOVARTIS: Cytotoxicity against human hepatocellular carcinoma cell line (Huh7)
Type: toxicity, cell-based, Huh-7
assay-conditions: Huh7 cells (hepatocellular carcinoma cell line)
endpoint-label: CC50

Reference set (2 entries):
>  <compound>
O=C1NN(c2ccc(Br)cc2)C(=O)/C1=C\c1c(O)ccc2ccccc12

>  <CC50>
> 10 µM

$$$$
>  <compound>
CC1N=C(c2ccc(NC(=O)c3ccc(C(=O)Nc4ccc(C5=NC(C)C(C)N5)cc4)cc3)cc2)NC1C (stereo not drawn)

>  <CC50>
> 100 µM

$$$$

For each of the compounds below, note its CC50.
1. Cc1cc(NCCN2CCCCC2)c2ccc3ccccc3c2n1
2. CCC(Cc1cnc2nc(N)nc(N)c2n1)c1ccc(C(=O)N[C@@H](CCC(=O)O)C(=O)O)cc1 (stereo partly drawn) [EDATREXATE]
3. CCCCCCN(C(=O)c1ccc2ccccc2c1)C(CC)c1nc2ccccc2c(=O)n1-c1ccccc1OC (stereo not drawn)
4. CCCOC(=O)C1=C(C)NC2=C(C(=O)CC(c3ccc(OC)cc3)C2)C1c1ccccc1Cl (stereo not drawn)
5. CC(=NO)c1ccc(NC2=C(N3CCCCC3)C(=O)c3ccccc3C2=O)cc1
6. O=[N+]([O-])c1cccc2c1nnn2C12CC3CC(CC(O)(C3)C1)C2

1. 15.6 µM
2. 0.0304 µM
3. > 10 µM
4. > 100 µM
5. > 100 µM
6. > 100 µM

====

System: Plasmodium falciparum
assay-comment: NOVARTIS: Inhibition of Plasmodium falciparum W2 (drug-resistant) proliferation in erythrocyte-based infection assay
Assay type: functional, organism-based
assay-conditions: Plasmodium falciparum, W2; read-out: EC50
pEC50: −log10 of the molar value.
Please provide measured pEC50 for the entries that follow.

Reference set (4 entries):
>  <compound>
Cc1ccc2nc(-c3ccc(O)cc3)oc2c1

>  <target-or-test-system>
Plasmodium falciparum

>  <val>
< 6.20

$$$$
>  <compound>
COC(=O)c1cc(NC(=S)NC(=O)c2c(OC)cccc2OC)cc(C(=O)OC)c1

>  <target-or-test-system>
Plasmodium falciparum

>  <val>
< 4.90

$$$$
>  <compound>
CCOc1ccc(Nc2nc(N3CCCCC3)nc(N3CCCCC3)n2)cc1

>  <target-or-test-system>
Plasmodium falciparum

>  <val>
< 5.90

$$$$
>  <compound>
Cc1cc(NS(=O)(=O)c2ccc(N=Cc3ccc(C#N)cc3)cc2)no1

>  <target-or-test-system>
Plasmodium falciparum

>  <val>
< 6.24

$$$$

Next compound, pEC50 to be filled in.
Could you share which pEC50 value was measured for CC=C[C@H]1O[C@@](O)([C@@H](C)C(O)C(C)[C@H]2OC(=O)C(OC)=CC(C)=C[C@@H](C)[C@H](O)C(CC)[C@@H](O)[C@H](C)CC(C)=CC=C[C@@H]2OC)C[C@@H](O[C@H]2C[C@@H](O)[C@H](OC(N)=O)[C@@H](C)O2)[C@@H]1C (stereo not given in full) ?
< 5.90
